System: SN12C renal
Test: NCI-60 one-dose screen, 48 h
Details: 10 µM unless noted
Compounds without any hit were thinned out: in the full panel of roughly 83,000, 20% have a hit. Calls of active or inactive are those of the source. How the source made its calls: active means growth percent below 10; inactive means the rest.
Returns: one label drawn from active, inactive

Completed entries (count: 5):
compound	classification
CC/C=C\C[C@H](O)C/C=C1/C(=O)C=C[C@@H]1C/C=C\CCCC(=O)OC	active
CNS(=O)(=O)c1n[nH]nc1-c1cc(C(C)(C)C)c(O)c(C(C)(C)C)c1	inactive
Cc1c(C(=O)NC(Cc2ccccc2)C(O)C(=O)NCc2ccc(F)cc2)[nH]c2ccccc2c1=O (stereo not given)	inactive
COCCN(C(=O)c1ccc(F)cc1F)c1c(N)n(Cc2ccccc2)c(=O)[nH]c1=O	inactive
Oc1ccc(CN2CCC(N3CCOCC3)CC2)c2cccnc12	inactive

// query Per the assay record, what outcome was assigned to O=C(O)C1CCC(=O)N1C(=O)OCc1ccccc1 (stereo not given) ?
// result inactive

----------
Tested on: SF-268 CNS
Test: NCI-60 one-dose screen, 48 h (100 = growth as untreated, 0 = no growth, -100 = all killed)
Conditions: 10 µM unless noted
About 83,000 compounds went through this panel and 20% of them were active in at least one assay; those are over-represented in the sample as a whole.
Label satisfied when growth is at or above 20%; otherwise label not satisfied.

// below: answered molecules
structure.as.smiles	measurement.target	classification
O=c1ccn2nc3ccccc3c2[nH]1	SF-268 CNS	satisfied
COc1ccc(N=Nc2ccc(O)c(=O)cc2)cc1	SF-268 CNS	satisfied
CC/C=C\C[C@H](O)C/C=C1/C(=O)C=C[C@@H]1C/C=C\CCCC(=O)OC	SF-268 CNS	not satisfied
CCOC(=O)c1csc(NC(=O)COc2cccc(/C=C3\Oc4cc(OC)ccc4C3=O)c2)n1	SF-268 CNS	satisfied

Now turn to the next molecule.
// query Is the recorded value of growth equal to or greater than 20% for this molecule? O=c1c2c3c(sc2n2c(-c4cn(-c5ccccc5)nc4-c4ccc(Cl)cc4)nnc2n1Cc1ccccc1)CCCC3
// result satisfied

----------
Test system: HCT-116 colon
Experiment: NCI-60 one-dose screen, 48 h
Conditions: 10 µM unless noted
The panel holds about 83,000 compounds, 20% with a hit somewhere; the sample as a whole holds those more often. Active and inactive are the calls of the source. Rule for the calls: active = growth percent below 10; inactive = the rest.
API: response.call in active, inactive

Past entries and their recorded results:
molecule	measurement.target	classification
O=c1ccn2nc3ccccc3c2[nH]1	HCT-116 colon	inactive
O=C(/C=C/c1ccco1)c1ccc(Nc2nc(Nc3ccc(F)cc3)nc(Nc3ccc(Cl)cc3)n2)cc1	HCT-116 colon	inactive
S=C(c1ccc2c(c1)OCO2)N1CCN(c2ccccc2Cl)CC1	HCT-116 colon	inactive

// query Look up the recorded call for COc1cc(C(=O)/C=C/c2c(C(F)(F)F)nc3sccn23)cc(OC)c1OC in this test.
// result active

// query Could you kindly confirm the outcome this assay logged for CCOC(=O)C/C(C)=N\NC(=O)c1ccncc1 ?
// result inactive

// query Hello, I am checking results. What call was entered for COc1cc(C2NC(=O)c3ccccc3N2)ccc1OCCCCCOc1c(OC)cc(C2=NOC(c3cc(OC)c(OC)c(OC)c3)C2)cc1OC (stereo not given) ?
// result inactive

// query Just curious, what result did COc1ccc(-c2nc3c(c(=O)n2C(C)=O)C(c2ccc(Cl)cc2)c2sc4c(Cl)cccc4c2O3)cc1 (stereo not given) get here?
// result active

// query Please share the test call associated with C[C@H](NC(=O)[C@@H]1CSSC[C@@H](NC(=O)c2nc3ccccc3cc2O)C(=O)NCC(=O)N1C)c1ccccc1 .
// result inactive

// query Recorded test outcome, item COc1ccc(C2c3ccc4ccccc4c3Oc3nc(C)[nH]c(=O)c32)cc1 (stereo not given)
// result inactive

// query Hey, what did the test say about Cn1c(-c2c(N)n(Cc3cccnc3)c3nc(C#N)c(C#N)nc23)nc2ccccc21 ?
// result inactive

// query Answer briefly: the call reported for COc1ccccc1N1C(=O)/C(=C/C2=Cc3ccccc3OC2)SC1=S in this assay.
// result inactive

// query Query: recorded result category for O=c1c2cc(F)ccc2sc2c(Nc3cccnc3)nc3ccccc3c12 in this test
// result inactive

// query Record lookup: outcome of this test for Cc1cc(C(=O)c2ccccc2)c(C)c2c1[nH]c1ccc(Cl)cc12 ?
// result active

// query Tell me the assay call for N#Cc1c(N)nc(NCCO)nc1-c1ccc(F)cc1 please.
// result inactive

// query Hello, I am checking results. What call was entered for C=CCOC1=CC(=O)c2ccccc2C1=O ?
// result active

// query // param item: NC(=N\N=C/c1cccc([N+](=O)[O-])c1)/C(N)=N\N=C/c1cccc([N+](=O)[O-])c1 ; yields the recorded call
// result inactive

// query // outcome(item) with item = CC(=O)OC[C@H]1OC(Sc2sc(C(=O)c3ccc(Br)cc3)c(N)c2-c2nc3ccccc3s2)[C@H](OC(C)=O)[C@@H](OC(C)=O)[C@@H]1OC(C)=O (stereo not given in full)
// result inactive
